B1: DnaJ homolog subfamily C member 5, residues 16 to 77; numbered along this chain, Q9H3Z4 (parent)
chain: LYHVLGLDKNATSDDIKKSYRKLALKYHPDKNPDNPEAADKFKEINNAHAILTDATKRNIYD

Variants of: B1
Experiment notes: abundance fitness (aPCA) (normalised: wild type 0, dead -1); higher = more abundant; growth selection in yeast, the domain comes from the species named
Assay setup: Homo sapiens
Short version: abundance fitness at least -0.2 is Fulfilled, less is Not fulfilled.

>>> group("K22I")
"Fulfilled"
>>> group("R58N")
"Fulfilled"
>>> group("L52N")
"Not fulfilled"
>>> group("V4L")
"Not fulfilled"
>>> group("A24D")
"Not fulfilled"
>>> group("A55L")
"Not fulfilled"
>>> group("K22Y")
"Not fulfilled"
>>> group("D15M")
"Not fulfilled"
>>> group("I60D")
"Fulfilled"
>>> group("A48M")
"Not fulfilled"
>>> group("S13R")
"Not fulfilled"
>>> group("T53W")
"Not fulfilled"
>>> group("H49Y")
"Not fulfilled"
>>> group("Y61P")
"Fulfilled"
>>> group("P29W")
"Not fulfilled"
>>> group("H28E")
"Fulfilled"
>>> group("Y2W")
"Not fulfilled"
>>> group("K17M")
"Fulfilled"
>>> group("N10P")
"Not fulfilled"
>>> group("R58I")
"Not fulfilled"
>>> group("L23N")
"Fulfilled"
>>> group("K17N")
"Not fulfilled"

Measured values drawn from the Human Domainome abundance scans (Beltran et al. 2025) for this set.
